biological target: human SGLT1 (Homo sapiens, UniProt P13866); construct: expressed in transfected cells; host or cells: CHO-K1; test: Inhibitory activity against methyl-α-D-glucopyranoside uptake, CHO cells stably expressing human SGLT1; assay type: cell-based; details: Table 2-2; read-out: hSGLT1 IC50 value
Sequence (P13866 whole entry): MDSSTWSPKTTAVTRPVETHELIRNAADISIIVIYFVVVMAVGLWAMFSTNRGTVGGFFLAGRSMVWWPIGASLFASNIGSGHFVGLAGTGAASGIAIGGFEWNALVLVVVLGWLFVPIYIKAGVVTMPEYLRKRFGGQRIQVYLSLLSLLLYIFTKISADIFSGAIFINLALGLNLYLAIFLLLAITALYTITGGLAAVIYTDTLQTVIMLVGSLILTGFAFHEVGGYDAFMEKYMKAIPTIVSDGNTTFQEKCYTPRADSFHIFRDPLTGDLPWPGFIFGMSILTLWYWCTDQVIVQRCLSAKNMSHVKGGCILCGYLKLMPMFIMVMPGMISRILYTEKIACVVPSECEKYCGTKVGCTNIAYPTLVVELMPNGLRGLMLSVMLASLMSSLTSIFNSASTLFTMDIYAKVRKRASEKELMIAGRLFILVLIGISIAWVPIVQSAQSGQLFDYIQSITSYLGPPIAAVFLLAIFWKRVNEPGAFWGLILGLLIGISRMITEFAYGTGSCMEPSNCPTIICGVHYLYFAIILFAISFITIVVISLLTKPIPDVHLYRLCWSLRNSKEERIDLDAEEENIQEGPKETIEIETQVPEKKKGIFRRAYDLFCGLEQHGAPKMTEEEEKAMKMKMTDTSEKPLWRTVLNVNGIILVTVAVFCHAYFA
measurement.type: IC50 (µM)

a: Cc1cc2c(cc1Cc1ccc(C(C)C)cc1)[C@]1(OC2)O[C@H](CO)[C@@H](O)[C@H](O)[C@H]1O [Example 21]
b: CCc1ccc(Cc2cc3c(cc2C)CO[C@]32O[C@H](CO)[C@@H](O)[C@H](O)[C@H]2O)cc1 [Comparative Compound 1, reference compound]
Query block: Parameter check: reported IC50 is higher for which label, a or b ? Use the label to indicate which entry you chose.
Result block: a

a: CCOc1ccc(Cc2cc3c(cc2Cl)CO[C@]32O[C@H](CO)[C@@H](O)[C@H](O)[C@H]2O)cc1 [Example 5]
b: CCc1ccc(Cc2cc3c(cc2Cl)CO[C@]32O[C@H](CO)[C@@H](O)[C@H](O)[C@H]2O)cc1 [Example 1]
Query block: Parameter check: reported IC50 is higher for which label, a or b ? Use the label to indicate which entry you chose.
Result block: a
